Entry source: ChEMBL document CHEMBL3045331

# Test system: Candida albicans
# assay_summary: Antifungal activity against Candida albicans MTCC 227 after 48 hr by spot subculture method
# Assay type: functional
# recorded_conditions: MTCC 227, 48 h
metric_name: MIC99 (µg/mL)
Answer in µg/mL, number only, no unit symbol.

Form: Entry = Cc1ccc(-c2nc3ccccc3c(=O)n2-c2ccc(C(=O)NN3C(=O)/C(=C/c4ccc(O)cc4)SC3c3ccc(O)cc3)cc2)cc1 (stereo not drawn) | System = Candida albicans | MIC99 = ____ 1000

What about this compound? COc1ccccc1/C=C1\SC(c2ccc(O)cc2)N(NC(=O)c2ccc(-n3c(-c4ccc(C)cc4)nc4ccccc4c3=O)cc2)C1=O (stereo not drawn) 500

Same for Cc1ccc(-c2nc3ccccc3c(=O)n2-c2ccc(C(=O)NN3C(=O)/C(=C/c4c(Cl)cccc4Cl)SC3c3ccc(O)cc3)cc2)cc1 (stereo not drawn) 500

Repeat for the following compound: Cc1ccc(-c2nc3ccccc3c(=O)n2-c2ccc(C(=O)NN3C(=O)/C(=C/c4ccccc4Cl)SC3c3ccc(O)cc3)cc2)cc1 (stereo not drawn) 1000

Same question, Cc1ccc(-c2nc3ccccc3c(=O)n2-c2ccc(C(=O)NN3C(=O)/C(=C/c4ccccc4)SC3c3ccc(O)cc3)cc2)cc1 (stereo not drawn) this time 500

Here is the next compound: Cc1ccc(-c2nc3ccccc3c(=O)n2-c2ccc(C(=O)NN3C(=O)/C(=C/c4cccc([N+](=O)[O-])c4)SC3c3ccc(O)cc3)cc2)cc1 (stereo not drawn) 100

Also need Cc1ccc(-c2nc3ccccc3c(=O)n2-c2ccc(C(=O)NN3C(=O)/C(=C/c4ccc(F)cc4)SC3c3ccc(O)cc3)cc2)cc1 (stereo not drawn) , thanks. 100

Moving on to the next compound: Cc1ccc(-c2nc3ccccc3c(=O)n2-c2ccc(C(=O)NN3C(=O)/C(=C/c4cc(Br)ccc4O)SC3c3ccc(O)cc3)cc2)cc1 (stereo not drawn) 500

----------
# System: Pseudomonas aeruginosa
# assay_summary: Antibacterial activity against Pseudomonas aeruginosa MTCC-1688 after 24 hr by serial broth dilution method
# Format: functional
# recorded_conditions: MTCC-1688, 24 h
metric_name: MIC99 (µg/mL)
Write down the numeric answer in µg/mL and omit the unit.

Endpoint output: MIC99 of Cc1ccc(-c2nc3ccccc3c(=O)n2-c2ccc(C(=O)NN3C(=O)/C(=C/c4ccccc4Cl)SC3c3ccc(O)cc3)cc2)cc1 (stereo not drawn) . Value? 500

Follow-up item: Cc1ccc(-c2nc3ccccc3c(=O)n2-c2ccc(C(=O)NN3C(=O)/C(=C/c4cc(Br)ccc4O)SC3c3ccc(O)cc3)cc2)cc1 (stereo not drawn) 500

Another compound to look at: COc1ccccc1/C=C1\SC(c2ccc(O)cc2)N(NC(=O)c2ccc(-n3c(-c4ccc(C)cc4)nc4ccccc4c3=O)cc2)C1=O (stereo not drawn) 100

# repeat for Cc1ccc(-c2nc3ccccc3c(=O)n2-c2ccc(C(=O)NN3C(=O)/C(=C/c4ccc(N(C)C)cc4)SC3c3ccc(O)cc3)cc2)cc1 (stereo not drawn) 200

Try this compound next: Cc1ccc(-c2nc3ccccc3c(=O)n2-c2ccc(C(=O)NN3C(=O)/C(=C/c4c(Cl)cccc4Cl)SC3c3ccc(O)cc3)cc2)cc1 (stereo not drawn) 200

Record: COc1ccc(/C=C2\SC(c3ccc(O)cc3)N(NC(=O)c3ccc(-n4c(-c5ccc(C)cc5)nc5ccccc5c4=O)cc3)C2=O)c(O)c1 (stereo not drawn) 200

What do we get for COc1ccc(/C=C2\SC(c3ccc(O)cc3)N(NC(=O)c3ccc(-n4c(-c5ccc(C)cc5)nc5ccccc5c4=O)cc3)C2=O)cc1 (stereo not drawn) ? 500

Do the same for Cc1ccc(-c2nc3ccccc3c(=O)n2-c2ccc(C(=O)NN3C(=O)/C(=C/c4ccc(Cl)cc4)SC3c3ccc(O)cc3)cc2)cc1 (stereo not drawn) please 100

----------
Can you tell me MIC99 for the items I'm about to list?
# System: Pseudomonas aeruginosa
# assay_summary: Antibacterial activity against Pseudomonas aeruginosa MTCC-1688 after 24 hr by serial broth dilution method
# Format: functional
# recorded_conditions: MTCC-1688, 24 h
The answer is to be given in µg/mL; state only the numeric part.

Quick check: MIC99 of COc1cc(/C=C2\SC(c3ccc(O)cc3)N(NC(=O)c3ccc(-n4c(-c5ccc(C)cc5)nc5ccccc5c4=O)cc3)C2=O)cc(OC)c1OC (configuration not stated) ? 100

Now the molecule Cc1ccc(-c2nc3ccccc3c(=O)n2-c2ccc(C(=O)NN3C(=O)/C(=C/c4ccc(F)cc4)SC3c3ccc(O)cc3)cc2)cc1 (configuration not stated) 50

Same read-out for Cc1ccc(-c2nc3ccccc3c(=O)n2-c2ccc(C(=O)NN3C(=O)/C(=C/c4ccc5ccccc5c4O)SC3c3ccc(O)cc3)cc2)cc1 (configuration not stated) ? 50

Can you handle Cc1ccc(-c2nc3ccccc3c(=O)n2-c2ccc(C(=O)NN3C(=O)/C(=C/c4ccccc4)SC3c3ccc(O)cc3)cc2)cc1 (configuration not stated) next? 500

Repeat for the following molecule: Cc1ccc(-c2nc3ccccc3c(=O)n2-c2ccc(C(=O)NN3C(=O)/C(=C/c4cccc([N+](=O)[O-])c4)SC3c3ccc(O)cc3)cc2)cc1 (configuration not stated) 100

And the next one, Cc1ccc(-c2nc3ccccc3c(=O)n2-c2ccc(C(=O)NN3C(=O)/C(=C/c4ccc(O)cc4)SC3c3ccc(O)cc3)cc2)cc1 (configuration not stated) ? 500

Also need CC1(C)S[C@@H]2[C@H](NC(=O)[C@H](N)c3ccccc3)C(=O)N2[C@H]1C(=O)O [AMPICILLIN] , thanks. 100

----------
# Test system: Candida albicans
# assay_summary: Antifungal activity against Candida albicans MTCC 227 after 48 hr by spot subculture method
# Assay type: functional
# recorded_conditions: MTCC 227, 48 h
metric_name: MIC99 (µg/mL)
Entry rule: numbers only, all in µg/mL.

Missing value: MIC99, Candida albicans, entry Cc1ccc(-c2nc3ccccc3c(=O)n2-c2ccc(C(=O)NN3C(=O)/C(=C/c4ccc(N(C)C)cc4)SC3c3ccc(O)cc3)cc2)cc1 (configuration not stated) . Fill in? 1000

Okay, and COc1cc(/C=C2\SC(c3ccc(O)cc3)N(NC(=O)c3ccc(-n4c(-c5ccc(C)cc5)nc5ccccc5c4=O)cc3)C2=O)cc(OC)c1OC (configuration not stated) ? 1000

And the next one, COc1ccc(/C=C2\SC(c3ccc(O)cc3)N(NC(=O)c3ccc(-n4c(-c5ccc(C)cc5)nc5ccccc5c4=O)cc3)C2=O)c(O)c1 (configuration not stated) ? 500

Consider next the compound Cc1ccc(-c2nc3ccccc3c(=O)n2-c2ccc(C(=O)NN3C(=O)/C(=C/c4ccc(Cl)cc4)SC3c3ccc(O)cc3)cc2)cc1 (configuration not stated) in the same way. 100

Then this compound: COc1ccc(/C=C2\SC(c3ccc(O)cc3)N(NC(=O)c3ccc(-n4c(-c5ccc(C)cc5)nc5ccccc5c4=O)cc3)C2=O)cc1 (configuration not stated) 1000

// repeat for Cc1ccc(-c2nc3ccccc3c(=O)n2-c2ccc(C(=O)NN3C(=O)/C(=C/c4ccc5ccccc5c4O)SC3c3ccc(O)cc3)cc2)cc1 (configuration not stated) and report 100

Would you mind doing `COC1=CC(=O)C[C@@H](C)[C@]12Oc1c(Cl)c(OC)cc(OC)c1C2=O` as well? 500
